For each of the compounds below, state its pKa.
Assay: Dissociation constant, pKa of the compound
Assay type: physicochemical
# print the numeric value only

Query: pKa; subject: CCC(CC)Oc1cc(C)nc(Oc2c(C)cc(C)cc2C)c1C
3.5

Query: pKa; subject: CCC(CC)Oc1cc(C)nc(Oc2c(C)cc(C)nc2C)c1C
4.97

----------
Biological target: Corticotropin-releasing factor receptor 1 (Rattus norvegicus, UniProt P35353)
Sequence (P35353 whole entry): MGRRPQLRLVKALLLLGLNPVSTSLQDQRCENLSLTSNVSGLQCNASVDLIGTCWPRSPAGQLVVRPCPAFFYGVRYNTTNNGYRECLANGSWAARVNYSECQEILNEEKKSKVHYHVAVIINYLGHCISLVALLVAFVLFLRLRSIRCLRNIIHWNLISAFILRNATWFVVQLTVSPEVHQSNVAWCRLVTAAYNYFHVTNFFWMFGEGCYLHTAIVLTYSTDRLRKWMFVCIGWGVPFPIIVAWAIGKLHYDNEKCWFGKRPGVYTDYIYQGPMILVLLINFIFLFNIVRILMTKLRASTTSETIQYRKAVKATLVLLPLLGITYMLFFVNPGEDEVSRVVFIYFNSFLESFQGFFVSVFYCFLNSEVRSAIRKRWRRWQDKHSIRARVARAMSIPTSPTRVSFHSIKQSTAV
For each of the compounds below, state its IC50.
Your answer is read as µM, so omit the unit and give the number.

Query: IC50; subject: CCC(CC)Oc1cc(C)nc(Oc2c(C)cc(C)cc2C)c1Br
0.0098

Query: IC50; subject: CCC(C)Oc1cc(C)nc(Oc2c(C)cc(C)cc2C)c1C (configuration not stated)
0.028

Query: IC50; subject: CCC(CC)Oc1cc(C)nc(Oc2c(C)cc(C)cc2C)c1C(=O)OC
0.47

Query: IC50; subject: Cc1cc(C)c(Oc2nc(C)cc(OC3CCOC3)c2C)c(C)c1 (configuration not stated)
0.1

Query: IC50; subject: CCC(CC)Oc1cc(C)nc(Oc2c(C)cc(Cl)cc2C)c1C
0.0055

Query: IC50; subject: CCC(CC)Oc1cc(C)nc(Oc2c(C)cccc2C)c1C
0.11

Query: IC50; subject: CCC(CC)Oc1cc(C)nc(Oc2c(C)cc(C(N)=O)cc2C)c1C
0.018

Query: IC50; subject: CCC(CC)Oc1c(C)c(C)nc(Oc2c(C)cc(C)cc2C)c1C
0.18

Query: IC50; subject: CCC(CC)Oc1cc(C)nc(Oc2c(C)cc(I)cc2C)c1C
0.012

Query: IC50; subject: CCC(CC)Oc1cc(C)nc(Oc2c(C)cc(C=O)cc2C)c1C
0.04

Query: IC50; subject: CCC(CC)Oc1cc(C)nc(Oc2c(C)cc(CO)cc2C)c1C
0.061

Query: IC50; subject: CCC(CC)Oc1cc(C)nc(Oc2c(C)cc(Br)cc2C)c1C
0.0026

Query: IC50; subject: CCC(CC)Oc1cc(C)nc(Oc2c(C)cc(C)cc2C)c1
0.15

Query: IC50; subject: CCC(CC)Oc1cc(C)nc(Oc2c(C)cc(C)cc2C)c1[N+](=O)[O-]
0.015

Query: IC50; subject: CCc1cc(C)c(Oc2nc(C)cc(OC(CC)CC)c2C)c(C)c1
0.011

Query: IC50; subject: CCC(CC)Oc1cc(C)nc(Oc2c(C)cc(C)cc2C)c1C
0.0068

Query: IC50; subject: CCc1cc(OC(CC)CC)c(C)c(Oc2c(C)cc(C)cc2C)n1
0.086
